- system_tested: T1, full length human MSR1 with a C-terminal Myc tag, on HEK293.Myc.hMSR1 cells (human, UniProt P21757 1-451)
- T1 sequence (looked up): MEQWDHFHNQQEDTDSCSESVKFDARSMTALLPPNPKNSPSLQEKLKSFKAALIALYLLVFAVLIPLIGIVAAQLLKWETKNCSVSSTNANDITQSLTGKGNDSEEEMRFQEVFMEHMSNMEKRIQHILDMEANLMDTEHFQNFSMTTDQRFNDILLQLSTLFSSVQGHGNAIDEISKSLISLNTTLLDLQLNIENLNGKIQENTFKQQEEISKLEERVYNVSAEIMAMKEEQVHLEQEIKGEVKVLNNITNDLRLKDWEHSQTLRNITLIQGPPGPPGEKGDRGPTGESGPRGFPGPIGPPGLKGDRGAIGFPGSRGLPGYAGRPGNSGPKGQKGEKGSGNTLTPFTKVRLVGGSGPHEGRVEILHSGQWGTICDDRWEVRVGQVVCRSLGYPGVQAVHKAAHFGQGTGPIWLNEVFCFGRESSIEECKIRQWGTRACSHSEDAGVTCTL
- experiment_description: cell-based or functional assay
Each record here notes measured IC50 of Dil-Acetylated LDL uptake inhibition.

[[record]]
binder = "H1H21234N (antibody, human IgG1, V domains shown, original human IgG1 Fc) VH: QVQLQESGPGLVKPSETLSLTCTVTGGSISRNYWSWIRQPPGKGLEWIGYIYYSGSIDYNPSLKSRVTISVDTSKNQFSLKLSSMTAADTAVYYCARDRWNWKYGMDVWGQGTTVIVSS VL: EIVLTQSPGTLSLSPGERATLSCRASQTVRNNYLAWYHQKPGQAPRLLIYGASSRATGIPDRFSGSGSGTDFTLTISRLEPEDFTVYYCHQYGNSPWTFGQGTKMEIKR"
result = "0.71 nM"

[[record]]
binder = "H2aM21235N (antibody, mouse IgG2a, V domains shown) VH: EVQLVESGGGLVQPGGSLRLSCAASGFTFSDHYMDWVRQAPGKGLEWVGRTRNKANSYTTEYAASVSGRFTISRDDSKNSLYLQMNSLKTEDTAVYYCTRAGIIGTLFDYWGQGTLVTVSS VL: DIQMTQSPSSLSASVGDRVTITCRASQIIGRYLNWFQQKPGKVPKLLIYAASSLQRGVPSRFSGSGSGTDFTLTISSLQPEDFATYYCQQSYNTPPITFGQGTRLEIKR"
result = "> 100 nM"


# lookup: IC50 of Dil-Acetylated LDL uptake inhibition of H1M21231N (antibody, V domains shown) VH: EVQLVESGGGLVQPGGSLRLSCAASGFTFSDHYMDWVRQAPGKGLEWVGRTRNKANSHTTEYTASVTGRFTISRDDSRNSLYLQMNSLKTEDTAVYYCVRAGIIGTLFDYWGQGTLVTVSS VL: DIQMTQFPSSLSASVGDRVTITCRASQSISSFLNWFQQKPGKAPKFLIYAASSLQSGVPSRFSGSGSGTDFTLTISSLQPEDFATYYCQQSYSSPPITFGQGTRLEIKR > 20 nM
